Recorded values, source patent US8129366B2.

- ASSAY SUMMARY: Solubility test in first and second liquid of the Japanese Pharmacopoeia
- MEASUREMENT SETUP: second liquid of the Japanese Pharmacopoeia (JP2), pH 6.8, aqueous buffer, Solubility, Second liquid of Japanese Pharmacopoeia (μg/mL), JP2, pH=6.8
Items are presented alongside their recorded solubility.
Answer format: numeric, µg/mL implied, no suffix.

Some compounds with recorded solubility:
>>> quantitative_readout("C[C@@H]1CN([C@H]2C[C@@H](CO[C@H]3CC[C@H](C(=O)O)CC3)N(C(=O)Cc3ccc(NC(=O)c4coc5ccccc45)c(Cl)c3)C2)C[C@H](C)O1 [Example 87]")
1200
>>> quantitative_readout("O=C(Nc1cc(F)c(CC(=O)N2C[C@@H](N3CC(N4CCOCC4)C3)C[C@H]2CO[C@H]2CC[C@H](C(=O)O)CC2)cc1Cl)c1csc2ccccc12 [Example 27]")
1000
>>> quantitative_readout("O=C(Nc1cc(F)c(CC(=O)N2C[C@@H](N3CC(CN4CCOCC4)C3)C[C@H]2CO[C@H]2CC[C@H](C(=O)O)CC2)cc1Cl)c1coc2ccccc12 [Example 30]")
1100
>>> quantitative_readout("CCO[C@@H]1CCN([C@H]2C[C@@H](CO[C@H]3CC[C@H](C(=O)O)CC3)N(C(=O)Cc3cc(Cl)c(NC(=O)c4csc5ccccc45)cc3F)C2)C1 [Example 34]")
1640
>>> quantitative_readout("O=C(Nc1cc(F)c(CC(=O)N2C[C@@H](N3C[C@@H]4OCO[C@@H]4C3)C[C@H]2CO[C@H]2CC[C@H](C(=O)O)CC2)cc1Cl)c1coc2ccccc12 [Example 74]")
1300
>>> quantitative_readout("CCO[C@H]1CCN([C@H]2C[C@@H](CO[C@H]3CC[C@H](C(=O)O)CC3)N(C(=O)Cc3cc(Cl)c(NC(=O)c4cn(C)c5ccccc45)cc3Cl)C2)C1 [Example 36]")
1840
>>> quantitative_readout("CO[C@@H]1CCN([C@H]2C[C@@H](CO[C@H]3CC[C@H](C(=O)O)CC3)N(C(=O)Cc3cc(Cl)c(NC(=O)c4csc5ccccc45)cc3F)C2)C1 [Example 32]")
1690
>>> quantitative_readout("COCCC1CN([C@H]2C[C@@H](CO[C@H]3CC[C@H](C(=O)O)CC3)N(C(=O)Cc3cc(Cl)c(NC(=O)c4csc5ccccc45)cc3F)C2)C1 [Example 12]")
1690

Shift focus to the following entry.
Endpoint output: solubility of C[C@@H]1CN([C@H]2C[C@@H](CO[C@H]3CC[C@H](C(=O)O)CC3)N(C(=O)Cc3ccc(NC(=O)c4nccc5ccccc45)c(Cl)c3)C2)C[C@H](C)O1 [Example 86] . Value?
1200
